Sourced from patent US20210070748A1

Known IC50 of a selection of molecules
tested on: UniProt:P52333
protocol: Inhibition of a panel of kinases, in vitro HotSpot kinase assay: JAK3
Type: biochemical
assay context: D-compounds panel data; 1 μM ATP; read-out: IC50 JAK3

# annotated cases, reported IC50 shown
molecule	readout value
C[C@@H]1[C@H](NC(=O)c2ccc(C3CC3)cc2)CCCN1c1cnc(C(N)=O)c(Nc2cnn(CC#N)c2)n1 [Example D-287]	1000 to 10000 nM
CN(C)C(=O)N[C@H]1CCCN(c2cnc(C(N)=O)c(Nc3ccc4ncccc4c3)n2)[C@@H]1CO (racemic) [Example D-64]	> 10000 nM
C[C@@H]1[C@H](NC(=O)N(C)C)CCCN1c1cnc(C(N)=O)c(Nc2cc(C3CCN(C4CCCC4)CC3)ns2)n1 [Example D-163]	100 to 1000 nM
C[C@@H]1[C@H](NC(=O)C23CC(C2)C3)CCCN1c1cnc(C(N)=O)c(Nc2cnn(C)c2)n1 [Example D-90]	1000 to 10000 nM

Record Cc1cc(Nc2nc(N3CCC[C@@H](NC(=O)c4ccc(C5CC5)cc4F)C3)cnc2C(N)=O)on1 [Example D-2] , field IC50: 1000 to 10000 nM

###

tested on: TEC (Homo sapiens)
Sequence (P42680 whole entry): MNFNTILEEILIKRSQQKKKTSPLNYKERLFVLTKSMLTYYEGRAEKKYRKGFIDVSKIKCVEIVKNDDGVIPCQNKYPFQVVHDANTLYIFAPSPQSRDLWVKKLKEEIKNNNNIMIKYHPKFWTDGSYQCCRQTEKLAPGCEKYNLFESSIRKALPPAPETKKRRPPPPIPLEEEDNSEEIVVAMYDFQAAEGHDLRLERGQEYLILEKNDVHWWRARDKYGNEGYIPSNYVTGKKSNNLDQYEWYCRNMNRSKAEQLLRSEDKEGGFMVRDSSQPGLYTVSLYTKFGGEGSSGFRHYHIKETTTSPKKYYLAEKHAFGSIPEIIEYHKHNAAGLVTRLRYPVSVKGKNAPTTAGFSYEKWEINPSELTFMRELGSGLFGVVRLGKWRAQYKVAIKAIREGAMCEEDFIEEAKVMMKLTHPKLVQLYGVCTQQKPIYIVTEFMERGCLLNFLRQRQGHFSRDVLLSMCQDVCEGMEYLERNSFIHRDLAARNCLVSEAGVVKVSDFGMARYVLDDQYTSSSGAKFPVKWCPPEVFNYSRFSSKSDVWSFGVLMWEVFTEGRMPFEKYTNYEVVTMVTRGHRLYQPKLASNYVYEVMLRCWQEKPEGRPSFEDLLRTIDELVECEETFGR
protocol: Inhibition of a panel of kinases, in vitro HotSpot kinase assay: TEC
Type: biochemical
assay context: D-compounds panel data; 1 μM ATP
measured quantity: IC50

molecule	IC50
Cn1cc(Nc2nc(N3CCCC4(C3)CN(c3ccc(C5CC5)cc3)C(=O)O4)cnc2C(N)=O)cn1 (stereo not shown)	100 to 1000 nM
C[C@@H]1[C@H](NC(=O)c2ccc(C3CC3)cc2)CCCN1c1cnc(C(N)=O)c(Nc2cnn(C)c2)n1	10 to 100 nM
COCCN(C)Cc1cc(Nc2nc(N3CCC[C@@H](NC(=O)c4ccc(C5CC5)cc4)[C@H]3C)cnc2C(N)=O)sn1	100 to 1000 nM

Shifting focus to the molecule that follows.
The recorded IC50 with TEC (Homo sapiens) for `C[C@@H]1[C@H](NC(=O)c2ccc(N(C)C)cc2)CCCN1c1cnc(C(N)=O)c(Nc2ccc(N3CCN(C)CC3)cc2)n1` was 10 to 100 nM

###

tested on: UniProtKB Q08881
Sequence (Q08881 whole entry): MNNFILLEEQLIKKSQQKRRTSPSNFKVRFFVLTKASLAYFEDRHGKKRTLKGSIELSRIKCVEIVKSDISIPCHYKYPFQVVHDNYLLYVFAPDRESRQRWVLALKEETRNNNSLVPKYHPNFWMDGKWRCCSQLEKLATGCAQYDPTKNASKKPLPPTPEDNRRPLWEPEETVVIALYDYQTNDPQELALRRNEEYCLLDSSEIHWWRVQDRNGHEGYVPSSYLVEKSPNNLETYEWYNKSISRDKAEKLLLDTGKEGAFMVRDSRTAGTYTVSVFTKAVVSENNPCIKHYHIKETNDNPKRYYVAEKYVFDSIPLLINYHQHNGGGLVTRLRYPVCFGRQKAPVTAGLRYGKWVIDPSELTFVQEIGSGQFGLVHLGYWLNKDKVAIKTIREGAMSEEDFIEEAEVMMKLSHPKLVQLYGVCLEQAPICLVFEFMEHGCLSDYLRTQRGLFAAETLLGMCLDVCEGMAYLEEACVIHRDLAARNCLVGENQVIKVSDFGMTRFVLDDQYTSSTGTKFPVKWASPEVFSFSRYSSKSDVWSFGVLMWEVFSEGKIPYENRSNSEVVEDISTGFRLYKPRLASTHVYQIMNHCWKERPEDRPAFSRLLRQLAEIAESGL
protocol: Inhibition of a panel of kinases, in vitro HotSpot kinase assay: ITK
Format: biochemical
assay context: Table 13, A compounds; 1 μM ATP
pIC50: −log10 of the molar value.
Recorded pIC50 for the following compounds

Reference set (3 entries):
compound	tested on	pIC50
C[C@@H]1[C@H](NC(=O)c2ccc(C3CC3)cc2F)CCCN1c1cnc(C(N)=O)c(Nc2ccc(C3(C)CCN(C4CC4)CC3)cc2)n1 [Example A-174]	UniProtKB Q08881	6.00 to 7.00
C[C@@H]1[C@H](NC(=O)c2ccc(C3CC3)nc2)CCCN1c1cnc(C(N)=O)c(Nc2cnn(C)c2)n1 [Example A-190]	UniProtKB Q08881	6.00 to 7.00
C[C@@H]1[C@H](NC(=O)c2ccc(C3CC3)cc2)CCCN1c1cnc(C(N)=O)c(Nc2ccc(N3CCN(C)CC3)cc2)n1 [Example A-170]	UniProtKB Q08881	6.00 to 7.00

Per the record, C[C@@H]1[C@H](NC(=O)c2ccc(C3CC3)cc2)CCCN1c1cnc(C(N)=O)c(Nc2cc(CN3CCCCC3)ns2)n1 [Example A-181] has pIC50 of 7.00 to 8.00

Input CN1CCN(c2ccc(Nc3nc(N4CCC[C@@H](n5ccc6cc(C7CC7)cc(F)c6c5=O)C4)cnc3C(N)=O)cc2)CC1 [Example A-133] . Output pIC50: 6.00 to 7.00

Lab book: pIC50 of C[C@@H]1[C@H](NC(=O)c2ccc(C3CC3)cc2F)CCCN1c1cnc(C(N)=O)c(Nc2cnn(C)c2)n1 [Example A-110] noted as 6.00 to 7.00

Please fill in: pIC50 reported for CC(C)N1CCN(c2ccc(Nc3nc(N4CCC[C@@H](NC(=O)c5ccc(C6CC6)cc5F)[C@H]4C)cnc3C(N)=O)cc2)CC1 [Example A-149] = 7.00 to 8.00

What the record says about CC1(c2ccc(Nc3nc(N4CCC[C@@H](n5ccc6cc(C7CC7)ccc6c5=O)C4)cnc3C(N)=O)cc2)CCN(C2CCCC2)CC1 [Example A-141] : pIC50 is 7.00 to 8.00

###

Listed here: items and their measured pIC50.
tested on: JAK3 (Homo sapiens, UniProt P52333)
protocol: Inhibition of a panel of kinases, in vitro HotSpot kinase assay: JAK3
Format: biochemical
assay context: Table 13, A compounds; 1 μM ATP; read-out: IC50 JAK3
pIC50: −log10 of the molar value.

Here are 5 compounds together with their reported answers.
compound	measured quantity	readout value
C[C@@H]1[C@H](NC(=O)c2ccc(C3CC3)cc2)CCCN1c1cnc(C(N)=O)c(Nc2cnn(C3CCN(C)CC3)c2)n1 [Example A-173]	pIC50	5.00 to 6.00
C[C@@H]1[C@H](NC(=O)c2ccc(C3CC3)cc2)CCCN1c1cnc(C(N)=O)c(Nc2cnn(C)c2)n1 [Example A-169]	pIC50	5.00 to 6.00
C[C@@H]1[C@H](NC(=O)c2ccc(C3CC3)cc2F)CCCN1c1cnc(C(N)=O)c(Nc2ccc(C3(C)CCN(C4CC4)CC3)cc2)n1 [Example A-174]	pIC50	7.00 to 8.00
C[C@@H]1[C@H](NC(=O)c2ccc(C3CC3)cc2F)CCCN1c1cnc(C(N)=O)c(Nc2ccc(C3(C)CCN(C4CCCC4)CC3)cc2)n1 [Example A-121]	pIC50	6.00 to 7.00
C[C@@H]1[C@H](NC(=O)c2ccc(C3CC3)cc2F)CCCN1c1cnc(C(N)=O)c(Nc2nc3c(s2)CN(C)CC3)n1 [Example A-108]	pIC50	< 5.00

In the following, a different compound is considered.
Form field pIC50, entry CN(C)C(=O)N[C@@H]1CCCN(c2cnc(C(N)=O)c(Nc3ccc(C4(C)CCN(C5CCCC5)CC4)cc3)n2)[C@@H]1CO [Example A-101] : 5.00 to 6.00

###

tested on: JAK3 (Homo sapiens)
Sequence (P52333 1-1124): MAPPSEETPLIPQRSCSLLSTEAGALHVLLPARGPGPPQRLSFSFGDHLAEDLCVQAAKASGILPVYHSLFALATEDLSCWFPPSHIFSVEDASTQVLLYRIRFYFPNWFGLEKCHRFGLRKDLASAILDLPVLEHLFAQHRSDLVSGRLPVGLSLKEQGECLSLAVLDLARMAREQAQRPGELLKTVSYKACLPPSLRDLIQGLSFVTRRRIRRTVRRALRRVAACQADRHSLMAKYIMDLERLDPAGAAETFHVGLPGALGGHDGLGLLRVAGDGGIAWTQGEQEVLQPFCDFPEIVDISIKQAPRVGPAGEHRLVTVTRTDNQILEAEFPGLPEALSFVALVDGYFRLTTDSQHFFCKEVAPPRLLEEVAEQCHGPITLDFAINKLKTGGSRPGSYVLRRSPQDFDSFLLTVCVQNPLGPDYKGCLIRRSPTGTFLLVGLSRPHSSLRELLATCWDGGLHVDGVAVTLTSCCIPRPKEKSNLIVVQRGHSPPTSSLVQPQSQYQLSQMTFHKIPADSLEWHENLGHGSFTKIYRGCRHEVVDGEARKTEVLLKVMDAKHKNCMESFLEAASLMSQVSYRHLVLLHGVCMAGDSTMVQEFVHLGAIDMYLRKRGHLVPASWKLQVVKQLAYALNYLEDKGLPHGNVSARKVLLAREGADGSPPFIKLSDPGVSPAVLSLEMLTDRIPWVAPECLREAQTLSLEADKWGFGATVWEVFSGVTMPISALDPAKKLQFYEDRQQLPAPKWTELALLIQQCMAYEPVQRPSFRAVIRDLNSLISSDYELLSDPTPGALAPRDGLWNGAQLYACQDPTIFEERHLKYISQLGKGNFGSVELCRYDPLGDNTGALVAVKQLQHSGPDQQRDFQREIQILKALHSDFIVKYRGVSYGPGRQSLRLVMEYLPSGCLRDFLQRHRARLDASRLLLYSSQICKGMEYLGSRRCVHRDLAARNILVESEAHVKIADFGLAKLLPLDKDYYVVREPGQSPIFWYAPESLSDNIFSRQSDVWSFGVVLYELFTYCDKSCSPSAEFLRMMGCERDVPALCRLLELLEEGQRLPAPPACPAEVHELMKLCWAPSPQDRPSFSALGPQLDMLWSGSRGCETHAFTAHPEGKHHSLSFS
protocol: Inhibition of a panel of kinases, in vitro HotSpot kinase assay: JAK3
Assay type: biochemical
assay context: D-compounds panel data; 1 μM ATP; read-out: IC50 JAK3
measured quantity: IC50

Previously resolved entries follow.
molecule	tested on	readout value
C[C@H]1CC[C@@H](NC(=O)c2ccc(C3CC3)cc2)CN1c1cnc(C(N)=O)c(Nc2cnn(C)c2)n1	JAK3 (Homo sapiens)	100 to 1000 nM
Cn1cc(Nc2nc(N3C[C@H](CO)C[C@H](NC(=O)c4ccc(C5CC5)cc4)C3)cnc2C(N)=O)cn1 (racemic)	JAK3 (Homo sapiens)	100 to 1000 nM
CC1COc2cc(C(=O)N[C@@H]3CCCN(c4cnc(C(N)=O)c(Nc5cnn(C)c5)n4)[C@@H]3C)ccc2C1 (some centres unmarked)	JAK3 (Homo sapiens)	> 10000 nM

# IC50 (molecule: `C[C@@H]1[C@H](NC(=O)c2ccc(C3CC3)nc2)CCCN1c1cnc(C(N)=O)c(Nc2ccc(N3CCC(F)(F)CC3)cc2)n1` ) is > 10000 nM

The molecule listed as `C[C@@H]1[C@H](NC(=O)c2cc(C3CC3)n(C)n2)CCCN1c1cnc(C(N)=O)c(Nc2cnn(C)c2)n1` has a reported IC50 of 100 to 1000 nM
